System: HCC1569
Test: H1.0 immunofluorescence intensity relative to DMSO (% of DMSO); higher = stronger H1.0 induction, active = 140 or more
Conditions: concentration: 10 µM; 24 h
endpoint_name: H1.0 immunofluorescence intensity

## Task Bench note: what H1.0 immunofluorescence intensity did NCCCNCCSP(=O)(O)O [Amifostine] show?
## Result 98.1 (inactive)

## Task Request: CCC(C)C=C(C)C=CC1=CC2=C(Cl)C(=O)C(C)(OC(C)=O)C(=O)C2=CO1 (configuration not stated) [Sclerotiorin]
## Result 95.1 (inactive)

## Task And for CCN1CC2(COC)C(O)CC(OC)C34C5CC6(O)C(OC)C(O)C(OC(C)=O)(C5C6OC(=O)c5ccccc5)C(C(OC)C23)C14 (configuration not stated) [Aconitine] ?
## Result 94.5 (inactive)

## Task Now consider O=C(O)C1C2CCC(O2)C1C(=O)O (configuration not stated) [Endothall] .
## Result 129 (inactive)

## Task Likewise for CCCN1CCCC(c2cccc(C#N)c2)C1.Cl (stereo not drawn) [S(-)-DS 121 hydrochloride] ?
## Result 84.5 (inactive)

## Task Same for CN1C2CCC1CC(OC(=O)C(CO)c1ccccc1)C2 (configuration not stated) [Hyoscyamine]
## Result 94.8 (inactive)

## Task Next up: C=CCN1CCC23c4c5ccc(O)c4OC2C(=NN=C2CCC4(O)C6Cc7ccc(O)c8c7C4(CCN6CC=C)C2O8)CCC3(O)C1C5.Cl.Cl (configuration not stated) [Naloxonazine dihydrochloride]
## Result 121 (inactive)

## Task Field entry: CCCN(CCC)C1CCc2c(F)ccc(O)c2C1.Cl (stereo not drawn) [S(-)-UH-301 hydrochloride]
## Result 96.3 (inactive)

## Task And the next one, Cl.Cl.Oc1ccc2c3c1OC1c4[nH]c5c(c4CC4(O)C(C2)N(CC2CC2)CCC314)CC1(O)C2Cc3ccc(O)c4c3C1(CCN2CC1CC1)C5O4 (configuration not stated) [nor-Binaltorphimine dihydrochloride] ?
## Result 89.7 (inactive)

## Task What do you have for CC(C)(C)c1o[nH]c(=O)c1CC(N)C(=O)O (configuration not stated) ?
## Result 95 (inactive)

## Task Check O=C1C=CC(=O)C=C1 [p-Benzoquinone] too.
## Result 93.3 (inactive)

## Task Try this molecule too: Br.CCCN(CCC)CCc1ccc(O)c(O)c1 [Dipropyldopamine hydrobromide]
## Result 100 (inactive)

## Task Do the same for CC1CCC2N(C1)CC1C3CC4C(CC(=O)C5CC(O)CCC54C)C3CCC1C2(C)O (configuration not stated) [Imperialine] please
## Result 92.1 (inactive)

## Task // same read-out, input: `NC(=O)c1cc(N2CC2)c([N+](=O)[O-])cc1[N+](=O)[O-]`
## Result 91.7 (inactive)

## Task Try this molecule too: CCC1(c2ccc(N)cc2)CCC(=O)NC1=O (racemic) [DL-Aminoglutethimide]
## Result 109 (inactive)

## Task Same for C=C1C(C)C2C(Cc3ccccc3)NC(=O)C23OC(=O)C=CC(O)CCCC(C)CC=CC3C1O (configuration not stated) [Cytochalasin B]
## Result 110 (inactive)

## Task Now consider Br.COC1CC=C2CCN3CCC4=C(CC(=O)OC4)C23C1 (stereo not drawn) [Dihydro-beta-erythroidine hydrobromide] .
## Result 93.8 (inactive)

====

System: TDF
Assay: H1.0 immunofluorescence intensity relative to DMSO (% of DMSO); higher = stronger H1.0 induction, active = 120 or more
Conditions: concentration: 10 µM; 24 h
Quick rule for you: H1.0 immunofluorescence intensity at 100 or higher means Condition met, lower means Condition not met.

## Task Please check the record `CCn1cc(C(=O)O)c(=O)c2cc3c(cc21)OCO3` and state if its H1.0 immunofluorescence intensity is at or above 100.
## Result Condition met

## Task Another: CC(C)(C)NCC(O)c1cc(Cl)c(N)c(Cl)c1 (stereo not drawn)
## Result Condition not met

## Task And COc1ccccc1N1CCNCC1.Cl [1-(2-Methoxyphenyl)piperazine hydrochloride] ?
## Result Condition not met

## Task Now this one: CN1CC(C(=O)NC2(C)OC3(O)C4CCCN4C(=O)C(Cc4ccccc4)N3C2=O)C=C2c3cccc4[nH]cc(c34)CC21 (stereo not drawn)
## Result Condition not met

## Task Then CC(=O)OCC1=CC2C3C(C)(C)C3(OC(=O)Cc3ccccc3)CC(C)C2(O)C2C=C(C)C(=O)C2(O)C1 (stereo not drawn) [12-Deoxyphorbol 13-phenylacetate 20-acetate] ?
## Result Condition met

## Task Same thing, different compound: CCC1(C2=NCCN2)Cc2ccccc2O1.Cl (stereo not drawn) [Efaroxan hydrochloride]
## Result Condition not met

====

For each record, write down the corresponding cell number.
Tested on: HCC1569
Assay: cell number relative to DMSO (% of DMSO); higher = more cells (less growth inhibition / toxicity)
Conditions: concentration: 10 µM; 24 h
Give the figure by itself; no unit, no explanation.

## Task Recorded cell number of CC1CCC2C(C)C3CCC4(O)C(CC5C4CC(=O)C4CC(=O)CCC45C)C3CN2C1 (stereo not given) , please.
## Result 99.8

## Task Let us now turn to CN1CC(NS(=O)(=O)N(C)C)CC2c3cccc4c3c(cn4C)CC21.Cl (stereo not given) [Mesulergine hydrochloride]
## Result 101

## Task Another molecule to look at: CC(N)Cc1c[nH]c2ccc(OCc3cccs3)cc12.Cl (stereo not given)
## Result 102

## Task Same question, Cl.O=c1[nH]oc2c1CCNC2 [THIP hydrochloride] this time
## Result 100

## Task Same question for CCCC[N+]1(C)C2CC(OC(=O)C(CO)c3ccccc3)CC1C1OC12.[Br-] (single isomer, unassigned; (-)) [(-)-Scopolamine,n-Butyl-, bromide] please.
## Result 101

====

Test system: HCC1569
Assay: H1.0 immunofluorescence intensity relative to DMSO (% of DMSO); higher = stronger H1.0 induction, active = 140 or more
Settings: concentration: 10 µM; 24 h
Would you mind telling me the reported H1.0 immunofluorescence intensity of each entry?

## Task Under HCC1569: H1.0 immunofluorescence intensity value of Br.NCc1cc(=O)[nH]o1 [Muscimol hydrobromide] ?
## Result 91 (inactive)

## Task Next up: CNC(=O)OCC[N+](C)(C)C.[Cl-] [Methylcarbamylcholine chloride]
## Result 95.8 (inactive)

## Task Record: Br.COC(=O)C1=CCCN(C)C1 [Arecoline hydrobromide]
## Result 86.6 (inactive)

## Task Check CC12CCC(O)CC1CCC1C2CCC2(C)C(C3=CC(=O)OC3)C(O)CC12O (configuration not stated) [Gitoxigenin] too.
## Result 81.4 (inactive)

## Task Continue with COC1C(O)C(C)OC(OC2C(Oc3cccc4c(O)c5c(=O)oc6ccc(C)c7c(=O)oc(c34)c5c67)OC(C)C(O)C2O)C1O (configuration not stated) [Chartreusin]
## Result 108 (inactive)

## Task // repeat for CC(C)(C)NCC(O)c1ccccc1Cl.Cl (configuration not stated) [Tulobuterol hydrochloride] and report
## Result 96.4 (inactive)

## Task Likewise for CC12CCC3C(CCC4(O)CC(O)CCC34C=O)C1(O)CCC2C1=CC(=O)OC1 (configuration not stated) [Strophantidin] ?
## Result 115 (inactive)

## Task Follow-up item: CC1CCCC=CC2CC(O)CC2C(O)C=CC(=O)O1 (configuration not stated) [Brefeldin A]
## Result 208 (active)

## Task # iterate: CC(N)c1cccc(Cl)c1Cl.Cl (racemic)
## Result 101 (inactive)

## Task Note, next up: CN(C)C1C(=O)C(C(N)=O)=C(O)C2(O)C(=O)C3=C(O)c4c(O)cccc4C(C)(O)C3CC12 (configuration not stated) [Tetracycline]
## Result 95.2 (inactive)

## Task Another compound: O=c1cccc2n1CC1CNCC2C1 (single isomer, unassigned; (-)) [(-)-Cytisine]
## Result 96.6 (inactive)

## Task Try this compound next: CC(=O)NC1CN2CCC(O)C2C(O)C1O (configuration not stated) [6-Acetamido-6-deoxy-castanospermine]
## Result 87.4 (inactive)

## Task Now this one: CN1Cc2c(ccc3c2OCO3)C2C(O)Cc3cc4c(cc3C21)OCO4 (single isomer, unassigned; (+)) [(+)-Chelidonine]
## Result 148 (active)

## Task Would you mind doing CC1CCC2(O)C3(C)CC4(O)OC2(C1O)C1(O)C3(O)C(OC(=O)c2ccc[nH]2)C(O)(C(C)C)C41C (configuration not stated) [Ryanodine] as well?
## Result 88 (inactive)

## Task What do you have for CCCCc1ccc(C(=O)O)nc1 [Fusaric acid] ?
## Result 88.6 (inactive)

## Task Do the same for CC12CCC3C(CCC4=C(O)C(=O)CCC43C)C1CCC2=O (configuration not stated) [Formestane] please
## Result 111 (inactive)

## Task Param item: C[N+](C)(C)CC(=O)O.[Cl-] [Betaine hydrochloride]
## Result 82.7 (inactive)

Cited source: the supplement of paper PMC7156485
